Biological target: DENV NS3h (Dengue virus type 2, UniProt Q91H74)
Sequence (Q91H74 1646-2093 limits assumed): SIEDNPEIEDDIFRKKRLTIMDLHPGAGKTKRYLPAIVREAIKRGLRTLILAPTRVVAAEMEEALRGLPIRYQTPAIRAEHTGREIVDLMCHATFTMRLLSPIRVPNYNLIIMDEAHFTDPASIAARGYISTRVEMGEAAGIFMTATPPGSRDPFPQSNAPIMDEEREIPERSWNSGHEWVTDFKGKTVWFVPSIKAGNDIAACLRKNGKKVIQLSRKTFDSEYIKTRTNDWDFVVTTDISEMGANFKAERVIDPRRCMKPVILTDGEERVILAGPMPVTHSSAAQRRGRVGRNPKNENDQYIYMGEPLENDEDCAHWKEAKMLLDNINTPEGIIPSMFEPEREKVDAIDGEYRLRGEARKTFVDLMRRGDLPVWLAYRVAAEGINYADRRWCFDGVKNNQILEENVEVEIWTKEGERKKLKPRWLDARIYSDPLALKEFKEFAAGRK
Type: biochemical
Settings: read-out: DENV ATPase IC50; DENV NS3h-catalyzed ATP hydrolysis; 100 μM ATP, poly(U) RNA, pH 7.5
pIC50: −log10 of the molar value.
QUANTITY NAME: pIC50

• Cc1ccc(C(=O)Nc2ccc(-c3nc4ccc(-c5nc6ccc(C)c(S(=O)(=O)O)c6s5)cc4s3)cc2)cc1 [compound 7] = 5.96
• Cc1ccc2nc(-c3ccc4nc(-c5ccc(NC(=O)c6ccc(C(F)(F)F)cc6)cc5)sc4c3)sc2c1S(=O)(=O)O [compound 8] = 5.92
• Cc1ccc2nc(-c3ccc4nc(-c5ccc(NC(=O)c6cccc(Cl)c6)cc5)sc4c3)sc2c1S(=O)(=O)O [compound 13] = 5.40
• Cc1ccc2nc(-c3ccc4nc(-c5ccc(NC(=O)c6ccc(Cl)cc6)cc5)sc4c3)sc2c1S(=O)(=O)O [compound 6] = 5.85
• COC(=O)c1ccc(C(=O)Nc2ccc(-c3nc4ccc(-c5nc6ccc(C)c(S(=O)(=O)O)c6s5)cc4s3)cc2)cc1.N [compound 5] = 6.40
• Cc1ccc2nc(-c3ccc4nc(-c5ccc(NC(=O)c6cc(C(F)(F)F)ccc6F)cc5)sc4c3)sc2c1S(=O)(=O)O [compound 21] = 5.42
• Cc1ccc2nc(-c3ccc4nc(-c5ccc(NC(=O)c6ccc7nc(-c8ccc(N)cc8)sc7c6)cc5)sc4c3)sc2c1S(=O)(=O)O.N [compound 24] = 6.30
• Cc1ccc2nc(-c3ccc4nc(-c5ccc(NC(=O)c6ccc(N)cc6)cc5)sc4c3)sc2c1S(=O)(=O)O [compound 2] = 5.55
• Cc1ccc2nc(-c3ccc4nc(-c5ccc(NC(=O)c6ccccc6C(F)(F)F)cc5)sc4c3)sc2c1S(=O)(=O)O [compound 15] = 5.27
• Cc1ccc2nc(-c3ccc4nc(-c5ccc(NC(=O)c6cc(C(F)(F)F)cc(C(F)(F)F)c6)cc5)sc4c3)sc2c1S(=O)(=O)O.N [compound 20] = 4.20
• Cc1ccc2nc(-c3ccc4nc(-c5ccc(NC(=O)c6cccc(C(F)(F)F)c6F)cc5)sc4c3)sc2c1S(=O)(=O)O [compound 18] = 5.37

====

Biological target: UniProtKB Q9WMX2
Assay: HCV NS3h-catalyzed ATP hydrolysis assay
Type: biochemical
Details: read-out: HCV ATPase IC50
IC50 values for the molecules below.
QUANTITY NAME: IC50 (µM)

* Cc1ccc2nc(-c3ccc4nc(-c5ccc(NC(=O)c6ccccc6C(F)(F)F)cc5)sc4c3)sc2c1S(=O)(=O)O | 71
* Cc1ccc2nc(-c3ccc4nc(-c5ccc(NC(=O)c6ccc(Cl)cc6)cc5)sc4c3)sc2c1S(=O)(=O)O | 53
* Cc1ccc2nc(-c3ccc4nc(-c5ccc(NC(=O)c6cc(F)ccc6C(F)(F)F)cc5)sc4c3)sc2c1S(=O)(=O)O | 65
* Cc1ccc2nc(-c3ccc4nc(-c5ccc(NC(=O)c6ccccc6)cc5)sc4c3)sc2c1S(=O)(=O)O | 69

====

Molecular target: HCV NS3h (Hepatitis C virus genotype 1b, UniProt Q9WMX2)
Sequence (Q9WMX2 1192-1657): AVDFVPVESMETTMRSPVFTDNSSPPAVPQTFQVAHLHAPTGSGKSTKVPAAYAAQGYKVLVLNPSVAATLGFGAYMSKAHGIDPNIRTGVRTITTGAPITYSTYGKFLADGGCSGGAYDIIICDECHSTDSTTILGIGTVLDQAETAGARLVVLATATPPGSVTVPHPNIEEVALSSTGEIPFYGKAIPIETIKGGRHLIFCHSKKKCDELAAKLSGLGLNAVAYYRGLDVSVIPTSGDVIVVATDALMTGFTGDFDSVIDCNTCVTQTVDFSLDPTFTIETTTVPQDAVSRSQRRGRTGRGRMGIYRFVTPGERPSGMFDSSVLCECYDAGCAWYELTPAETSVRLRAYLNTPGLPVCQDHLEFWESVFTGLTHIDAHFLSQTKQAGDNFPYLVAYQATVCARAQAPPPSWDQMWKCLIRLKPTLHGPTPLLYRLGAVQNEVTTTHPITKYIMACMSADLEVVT
Assay: HCV NS3h RNA unwinding assay
Format: biochemical
Conditions: read-out: HCV RNA-helicase IC50, values without asterisk
pIC50: −log10 of the molar value.
Here, each record is paired with measured pIC50 data.
QUANTITY NAME: pIC50

- Cc1ccc2nc(-c3ccc4nc(-c5ccc(NC(=O)c6cc(F)cc(C(F)(F)F)c6)cc5)sc4c3)sc2c1S(=O)(=O)O [compound 23]: 5.01
- Cc1ccc2nc(-c3ccc4nc(-c5ccc(NC(=O)c6ccc(N(C)C)cc6)cc5)sc4c3)sc2c1S(=O)(=O)O [compound 10]: 5.07
- Cc1ccc2nc(-c3ccc4nc(-c5ccc(NC(=O)c6ccccc6)cc5)sc4c3)sc2c1S(=O)(=O)O [compound 1]: 5.07
- Cc1ccc2nc(-c3ccc4nc(-c5ccc(NC(=O)c6cc(C(F)(F)F)ccc6F)cc5)sc4c3)sc2c1S(=O)(=O)O [compound 21]: 5.12
